// each record: one item and its pIC50 for BACE1 enzyme (Homo sapiens (Human), UniProt P56817)
pIC50 is a log-scale quantity: -log10 of the concentration expressed in molar.

>  <Compound>
Cc1ccc([C@H]2C[C@H]3CSC(N)=N[C@@]3(c3ccc(F)cc3F)CO2)cc1 [Example 6]

>  <Observable>
pIC50

>  <Recorded result>
7.62

$$$$

IN: Entry Cc1ccc(F)c([C@H]2C[C@H]3CSC(N)=N[C@@]3(c3ccc(F)cc3F)CO2)c1 [Example 11] : reported pIC50 = ?
OUT: 7.68

IN: Entry COc1ccc([C@H]2C[C@H]3CSC(N)=N[C@@]3(c3ccc(F)cc3F)CO2)cc1 [Example 16] : reported pIC50 = ?
OUT: 7.54

IN: Entry NC1=N[C@@]2(c3ccc(F)cc3F)CO[C@@H](c3cccc(C(F)(F)F)c3)C[C@H]2CS1 [Example 13] : reported pIC50 = ?
OUT: 7.01

====

target: BACE1 enzyme (Homo sapiens (Human), UniProt P56817); experiment: BACE1 Cell-Free Assay (fluorescence polarization, cleavage of synthetic APP substrate); assay type: biochemical; details: geometric mean of 2-3 determinations; Examples 32-34 (footnote b) single determination
Sequence (P56817 46-457): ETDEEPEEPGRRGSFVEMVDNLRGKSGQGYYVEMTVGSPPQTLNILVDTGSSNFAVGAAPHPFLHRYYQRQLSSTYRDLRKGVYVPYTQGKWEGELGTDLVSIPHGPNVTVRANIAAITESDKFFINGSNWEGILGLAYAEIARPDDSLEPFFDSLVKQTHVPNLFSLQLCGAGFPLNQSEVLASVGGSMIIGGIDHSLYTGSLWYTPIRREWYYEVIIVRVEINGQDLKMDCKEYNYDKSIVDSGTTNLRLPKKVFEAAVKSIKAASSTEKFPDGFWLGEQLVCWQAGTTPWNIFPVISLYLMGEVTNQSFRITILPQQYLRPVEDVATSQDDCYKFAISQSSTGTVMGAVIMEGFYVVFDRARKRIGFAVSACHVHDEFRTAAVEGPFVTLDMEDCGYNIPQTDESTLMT
pIC50 by entry:
pIC50 is a log-scale quantity: -log10 of the concentration expressed in molar.

Example results:
>  <Smiles repr>
C[C@H]1SC(N)=N[C@@]2(c3ccc(F)cc3F)CO[C@@H](c3ccc(C#N)cc3)C[C@@H]12

>  <Recorded result>
7.96

$$$$
>  <Smiles repr>
NC1=N[C@@]2(c3ccc(F)cc3F)CO[C@@H](c3ccc(F)c(F)c3)C[C@H]2CS1

>  <Recorded result>
8.00

$$$$

IN: Entry `COCc1ccc([C@H]2C[C@H]3CSC(N)=N[C@@]3(c3ccc(F)cc3F)CO2)cc1` : reported pIC50 = ?
OUT: 7.66

IN: Entry `N#Cc1cccc([C@H]2C[C@H]3CSC(N)=N[C@@]3(c3ccc(F)cc3F)CO2)c1` : reported pIC50 = ?
OUT: 7.00

====

// each record: one item and its pIC50 for BACE1 enzyme (Homo sapiens (Human), UniProt P56817)
pIC50 is a log-scale quantity: -log10 of the concentration expressed in molar.

Example results:
>  <Smiles repr>
COc1cc([C@H]2C[C@H]3CSC(N)=N[C@@]3(c3ccc(F)cc3F)CO2)ccc1F

>  <pIC50>
6.67

$$$$
>  <Smiles repr>
Cc1cc(F)cc([C@H]2C[C@H]3CSC(N)=N[C@@]3(c3ccc(F)cc3F)CO2)c1

>  <pIC50>
7.80

$$$$
>  <Smiles repr>
NC1=N[C@@]2(c3ccc(F)cc3F)CO[C@@H](c3ccc4c(c3)OCO4)C[C@H]2CS1

>  <pIC50>
7.72

$$$$

Then this molecule:
IN: Entry `Cc1cc([C@H]2C[C@H]3CSC(N)=N[C@@]3(c3ccc(F)cc3F)CO2)ccc1F` : reported pIC50 = ?
OUT: 8.22

====

target: BACE1 enzyme (Homo sapiens (Human)); assay: BACE1 Cell-Free Assay (fluorescence polarization, cleavage of synthetic APP substrate); assay type: biochemical; details: geometric mean of 2-3 determinations; Examples 32-34 (footnote b) single determination
IC50 by entry:
Write down the numeric answer in nM and omit the unit.

>  <Compound>
COc1ccc(F)c([C@H]2C[C@H]3CSC(N)=N[C@@]3(c3ccc(F)cc3F)CO2)c1 [Example 22]

>  <Recorded result>
397

$$$$
>  <Compound>
COc1cc(F)cc([C@H]2C[C@H]3CSC(N)=N[C@@]3(c3ccc(F)cc3F)CO2)c1 [Example 21]

>  <Recorded result>
335

$$$$
>  <Compound>
NC1=N[C@@]2(c3ccc(F)cc3F)CO[C@@H](c3cccc(F)c3)C[C@H]2CS1 [Example 2]

>  <Recorded result>
22

$$$$

Then this compound:
IN: Entry COc1ccc([C@H]2C[C@H]3CSC(N)=N[C@@]3(c3ccc(F)cc3F)CO2)cc1F [Example 19] : reported IC50 = ?
OUT: 44
